Sourced from the supplement of paper PMC9262897

- Tested on: E. coli TESEC Mtb Alr
- assay procedure: growth (OD600 after 10 h); higher = more growth (less inhibition)
- reported conditions: arabinose 100 nM; compound 0.1 mM; raw OD600 reference: median of DMSO wells 0.413, cell-free background 0.052
Counter-ions that a name gives are not always drawn.
Below, each entry is listed alongside its reported growth.

[
  {
    "molecule": "CCN(CC)CCNC(=O)c1ccc(N)cc1 [Procainamide hydrochloride]",
    "growth": 0.408
  },
  {
    "molecule": "COc1cc2nc(N3CCN(C(=O)C4CCCO4)CC3)nc(N)c2cc1OC (stereo not drawn) [Terazosin hydrochloride]",
    "growth": 0.407
  },
  {
    "molecule": "Cc1c(N(C)C)c(=O)n(-c2ccccc2)n1C [Amidopyrine]",
    "growth": 0.412
  },
  {
    "molecule": "CC(C)NCC(O)COc1ccc(CCOCC2CC2)cc1 (stereo not drawn) [Betaxolol hydrochloride]",
    "growth": 0.404
  },
  {
    "molecule": "C=C[C@H]1CN2CC[C@H]1C[C@@H]2[C@@H](O)c1ccnc2ccc(OC)cc12 [Quinidine hydrochloride monohydrate]",
    "growth": 0.433
  },
  {
    "molecule": "N=C(NCCCCCCNC(=N)NC(=N)Nc1ccc(Cl)cc1)NC(=N)Nc1ccc(Cl)cc1 [Chlorhexidine]",
    "growth": 0.0481
  },
  {
    "molecule": "CC1(C)O[C@@H]2C[C@H]3[C@@H]4C[C@H](F)C5=CC(=O)CC[C@]5(C)[C@H]4[C@@H](O)C[C@]3(C)[C@]2(C(=O)CO)O1 [Flurandrenolide]",
    "growth": 0.406
  },
  {
    "molecule": "NS(=O)(=O)c1cc(C(=O)O)c(NCc2ccco2)cc1Cl [Furosemide]",
    "growth": 0.406
  }
]

---

- System: E. coli TESEC Mtb Alr
- assay procedure: growth (OD600 after 10 h); higher = more growth (less inhibition)
- reported conditions: arabinose 10000000 nM; compound 0.1 mM; raw OD600 reference: median of DMSO wells […], cell-free background 0.052
Structures can show the parent of a compound that is named as a salt.
Listed here: items and their measured growth.
readout type: growth

[
  {
    "molecule": "Nc1nc2ccc(OC(F)(F)F)cc2s1 [Riluzole hydrochloride]",
    "value": 0.419
  },
  {
    "molecule": "CN1CCCN=C1/C=C/c1cccs1 [Pyrantel tartrate]",
    "value": 0.343
  },
  {
    "molecule": "CCCN(CCC)S(=O)(=O)c1ccc(C(=O)O)cc1",
    "value": 0.267
  },
  {
    "molecule": "CC(C)(C)NC[C@H](O)c1ccc(O)c(CO)c1 [Levalbuterol hydrochloride]",
    "value": 0.318
  },
  {
    "molecule": "O=C1NCCN1CCN1CCC(c2cn(-c3ccc(F)cc3)c3ccc(Cl)cc23)CC1",
    "value": 0.0524
  }
]

---

- System: E. coli TESEC Alr+ wild-type control
- assay procedure: growth (OD600 after 10 h); higher = more growth (less inhibition)
- reported conditions: compound 0.1 mM; raw OD600 reference: median of DMSO wells 0.49, cell-free background 0.052
Structures can show the parent of a compound that is named as a salt.
Each record here notes measured growth.
readout type: growth

[
  {
    "compound": "C[C@H](CCC(=O)O)[C@H]1CC[C@H]2[C@@H]3[C@H](O)C[C@@H]4C[C@H](O)CC[C@]4(C)[C@H]3CC[C@]12C",
    "experimental target": "E. coli TESEC Alr+ wild-type control",
    "value": 0.439
  },
  {
    "compound": "CCN1CC(CCN2CCOCC2)C(c2ccccc2)(c2ccccc2)C1=O (stereo not given) [Doxapram hydrochloride]",
    "experimental target": "E. coli TESEC Alr+ wild-type control",
    "value": 0.54
  },
  {
    "compound": "O=C(O)CCc1nc(-c2ccccc2)c(-c2ccccc2)o1",
    "experimental target": "E. coli TESEC Alr+ wild-type control",
    "value": 0.381
  },
  {
    "compound": "CCN(CC)CC(=O)Nc1c(C)cccc1C [Lidocaine hydrochloride]",
    "experimental target": "E. coli TESEC Alr+ wild-type control",
    "value": 0.586
  },
  {
    "compound": "CC(C)(C)NCC(O)COc1cccc2c1CCC(=O)N2 (stereo not given) [Carteolol hydrochloride]",
    "experimental target": "E. coli TESEC Alr+ wild-type control",
    "value": 0.649
  },
  {
    "compound": "Nc1nc(NC2CC2)c2ncn([C@H]3C=C[C@@H](CO)C3)c2n1 [Abacavir Sulfate]",
    "experimental target": "E. coli TESEC Alr+ wild-type control",
    "value": 0.612
  },
  {
    "compound": "CCOC(=O)n1ccn(C)c1=S",
    "experimental target": "E. coli TESEC Alr+ wild-type control",
    "value": 0.607
  },
  {
    "compound": "O=C(N/N=C/c1ccc([N+](=O)[O-])o1)c1ccc(O)cc1 [Nifuroxazide]",
    "experimental target": "E. coli TESEC Alr+ wild-type control",
    "value": 0.0581
  },
  {
    "compound": "O=C(CCCCC(=O)Nc1c(I)cc(I)c(C(=O)O)c1I)Nc1c(I)cc(I)c(C(=O)O)c1I [Iodipamide]",
    "experimental target": "E. coli TESEC Alr+ wild-type control",
    "value": 0.527
  },
  {
    "compound": "CC(Oc1c(Cl)cccc1Cl)C1=NCCN1 (stereo not given)",
    "experimental target": "E. coli TESEC Alr+ wild-type control",
    "value": 0.555
  },
  {
    "compound": "NCCc1cc[nH]n1 [Betazole hydrochloride]",
    "experimental target": "E. coli TESEC Alr+ wild-type control",
    "value": 0.494
  },
  {
    "compound": "CN1CCc2c(c3ccccc3n2Cc2ccccc2)C1 [Mebhydroline 1,5-naphtalenedisulfonate]",
    "experimental target": "E. coli TESEC Alr+ wild-type control",
    "value": 0.447
  },
  {
    "compound": "COC(=O)C1=C(C)NC(C)=C(C(=O)OCCN(C)Cc2ccccc2)C1c1cccc([N+](=O)[O-])c1 (stereo not given) [Nicardipine hydrochloride]",
    "experimental target": "E. coli TESEC Alr+ wild-type control",
    "value": 0.0588
  },
  {
    "compound": "OCCN1C[C@H](O)[C@@H](O)[C@H](O)[C@H]1CO",
    "experimental target": "E. coli TESEC Alr+ wild-type control",
    "value": 0.583
  },
  {
    "compound": "Cc1nc2n(c(=O)c1CCN1CCC(c3noc4cc(F)ccc34)CC1)CCCC2",
    "experimental target": "E. coli TESEC Alr+ wild-type control",
    "value": 0.47
  },
  {
    "compound": "CC1CCc2c(N3CCC(O)CC3)c(F)cc3c(=O)c(C(=O)O)cn1c23 (stereo not given)",
    "experimental target": "E. coli TESEC Alr+ wild-type control",
    "value": 0.0538
  },
  {
    "compound": "C[C@]12CC[C@@H]3c4ccc(O)cc4CC[C@H]3[C@@H]1CCC2=O",
    "experimental target": "E. coli TESEC Alr+ wild-type control",
    "value": 0.511
  },
  {
    "compound": "CC(C)NCC(O)COc1ccc(CCOCC2CC2)cc1 (stereo not given) [Betaxolol hydrochloride]",
    "experimental target": "E. coli TESEC Alr+ wild-type control",
    "value": 0.562
  },
  {
    "compound": "Cc1cc(NC(=O)C2=C(O)c3ccccc3S(=O)(=O)N2C)no1",
    "experimental target": "E. coli TESEC Alr+ wild-type control",
    "value": 0.47
  },
  {
    "compound": "CNCCC=C1c2ccccc2CCc2ccccc21 [Nortriptyline hydrochloride]",
    "experimental target": "E. coli TESEC Alr+ wild-type control",
    "value": 0.46
  },
  {
    "compound": "C[C@]12CC[C@@H]3c4ccc(O)cc4CC[C@H]3[C@@H]1C[C@@H](O)[C@@H]2O",
    "experimental target": "E. coli TESEC Alr+ wild-type control",
    "value": 0.474
  },
  {
    "compound": "CCCCC(CC)CNC(=N)NC(=N)NCCCCCCNC(=N)NC(=N)NCC(CC)CCCC (stereo not given) [Alexidine dihydrochloride]",
    "experimental target": "E. coli TESEC Alr+ wild-type control",
    "value": 0.0485
  },
  {
    "compound": "C[C@@H]1CN(c2c(F)c(N)c3c(=O)c(C(=O)O)cn(C4CC4)c3c2F)C[C@H](C)N1",
    "experimental target": "E. coli TESEC Alr+ wild-type control",
    "value": 0.0553
  },
  {
    "compound": "C=C1/C(=C\\C=C2/CCC[C@]3(C)[C@@H]([C@H](C)CCCC(C)C)CC[C@@H]23)C[C@@H](O)C[C@@H]1O",
    "experimental target": "E. coli TESEC Alr+ wild-type control",
    "value": 0.146
  },
  {
    "compound": "CNC(C)CCC=C(C)C (stereo not given) [Isometheptene mucate]",
    "experimental target": "E. coli TESEC Alr+ wild-type control",
    "value": 0.51
  },
  {
    "compound": "CCC(C)n1ncn(-c2ccc(N3CCN(c4ccc(OCC5COC(Cn6cncn6)(c6ccc(Cl)cc6Cl)O5)cc4)CC3)cc2)c1=O (stereo not given)",
    "experimental target": "E. coli TESEC Alr+ wild-type control",
    "value": 0.44
  },
  {
    "compound": "CN1CCN(c2c(F)cc3c(=O)c(C(=O)O)cn4c3c2SCC4)CC1",
    "experimental target": "E. coli TESEC Alr+ wild-type control",
    "value": 0.0549
  },
  {
    "compound": "C1N2CN3CN1CN(C2)C3",
    "experimental target": "E. coli TESEC Alr+ wild-type control",
    "value": 0.59
  },
  {
    "compound": "O=P(O)(O)C(O)(Cn1ccnc1)P(=O)(O)O [Zoledronic acid hydrate]",
    "experimental target": "E. coli TESEC Alr+ wild-type control",
    "value": 0.596
  },
  {
    "compound": "CCc1cc(Cl)c(OC)c(C(=O)NC[C@@H]2CCCN2CC)c1O [S(-)Eticlopride hydrochloride]",
    "experimental target": "E. coli TESEC Alr+ wild-type control",
    "value": 0.567
  },
  {
    "compound": "O=P(O)(O)C(O)(Cc1cccnc1)P(=O)(O)O [Risedronic acid monohydrate]",
    "experimental target": "E. coli TESEC Alr+ wild-type control",
    "value": 0.608
  },
  {
    "compound": "Nc1nc(=S)c2ncn([C@@H]3O[C@H](CO)[C@@H](O)[C@H]3O)c2[nH]1",
    "experimental target": "E. coli TESEC Alr+ wild-type control",
    "value": 0.349
  },
  {
    "compound": "COC(=O)Nc1nc2ccc(SC(C)C)cc2[nH]1",
    "experimental target": "E. coli TESEC Alr+ wild-type control",
    "value": 0.523
  },
  {
    "compound": "C[C@@H](O[C@H]1OCCN(Cc2n[nH]c(=O)[nH]2)[C@H]1c1ccc(F)cc1)c1cc(C(F)(F)F)cc(C(F)(F)F)c1 [Aprepitant]",
    "experimental target": "E. coli TESEC Alr+ wild-type control",
    "value": 0.386
  },
  {
    "compound": "CN1CCN(CC(=O)N2c3ccccc3C(=O)Nc3cccnc32)CC1 [Pirenzepine dihydrochloride]",
    "experimental target": "E. coli TESEC Alr+ wild-type control",
    "value": 0.531
  }
]
